Just for reference, ChEMBL document CHEMBL5321284 is where these values come from.

Target: von Hippel-Lindau disease tumor suppressor/1-phosphatidylinositol 3-phosphate 5-kinase (Homo sapiens) (UniProt Q9Y2I7+P40337)
Sequence (P40337 whole entry partner): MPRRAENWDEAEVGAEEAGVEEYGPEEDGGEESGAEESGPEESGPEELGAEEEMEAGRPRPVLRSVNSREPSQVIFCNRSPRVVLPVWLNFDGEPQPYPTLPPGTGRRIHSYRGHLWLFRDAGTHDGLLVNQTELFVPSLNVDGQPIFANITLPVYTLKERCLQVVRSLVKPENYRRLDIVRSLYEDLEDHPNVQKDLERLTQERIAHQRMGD
Sequence (Q9Y2I7 2-2098 limits assumed): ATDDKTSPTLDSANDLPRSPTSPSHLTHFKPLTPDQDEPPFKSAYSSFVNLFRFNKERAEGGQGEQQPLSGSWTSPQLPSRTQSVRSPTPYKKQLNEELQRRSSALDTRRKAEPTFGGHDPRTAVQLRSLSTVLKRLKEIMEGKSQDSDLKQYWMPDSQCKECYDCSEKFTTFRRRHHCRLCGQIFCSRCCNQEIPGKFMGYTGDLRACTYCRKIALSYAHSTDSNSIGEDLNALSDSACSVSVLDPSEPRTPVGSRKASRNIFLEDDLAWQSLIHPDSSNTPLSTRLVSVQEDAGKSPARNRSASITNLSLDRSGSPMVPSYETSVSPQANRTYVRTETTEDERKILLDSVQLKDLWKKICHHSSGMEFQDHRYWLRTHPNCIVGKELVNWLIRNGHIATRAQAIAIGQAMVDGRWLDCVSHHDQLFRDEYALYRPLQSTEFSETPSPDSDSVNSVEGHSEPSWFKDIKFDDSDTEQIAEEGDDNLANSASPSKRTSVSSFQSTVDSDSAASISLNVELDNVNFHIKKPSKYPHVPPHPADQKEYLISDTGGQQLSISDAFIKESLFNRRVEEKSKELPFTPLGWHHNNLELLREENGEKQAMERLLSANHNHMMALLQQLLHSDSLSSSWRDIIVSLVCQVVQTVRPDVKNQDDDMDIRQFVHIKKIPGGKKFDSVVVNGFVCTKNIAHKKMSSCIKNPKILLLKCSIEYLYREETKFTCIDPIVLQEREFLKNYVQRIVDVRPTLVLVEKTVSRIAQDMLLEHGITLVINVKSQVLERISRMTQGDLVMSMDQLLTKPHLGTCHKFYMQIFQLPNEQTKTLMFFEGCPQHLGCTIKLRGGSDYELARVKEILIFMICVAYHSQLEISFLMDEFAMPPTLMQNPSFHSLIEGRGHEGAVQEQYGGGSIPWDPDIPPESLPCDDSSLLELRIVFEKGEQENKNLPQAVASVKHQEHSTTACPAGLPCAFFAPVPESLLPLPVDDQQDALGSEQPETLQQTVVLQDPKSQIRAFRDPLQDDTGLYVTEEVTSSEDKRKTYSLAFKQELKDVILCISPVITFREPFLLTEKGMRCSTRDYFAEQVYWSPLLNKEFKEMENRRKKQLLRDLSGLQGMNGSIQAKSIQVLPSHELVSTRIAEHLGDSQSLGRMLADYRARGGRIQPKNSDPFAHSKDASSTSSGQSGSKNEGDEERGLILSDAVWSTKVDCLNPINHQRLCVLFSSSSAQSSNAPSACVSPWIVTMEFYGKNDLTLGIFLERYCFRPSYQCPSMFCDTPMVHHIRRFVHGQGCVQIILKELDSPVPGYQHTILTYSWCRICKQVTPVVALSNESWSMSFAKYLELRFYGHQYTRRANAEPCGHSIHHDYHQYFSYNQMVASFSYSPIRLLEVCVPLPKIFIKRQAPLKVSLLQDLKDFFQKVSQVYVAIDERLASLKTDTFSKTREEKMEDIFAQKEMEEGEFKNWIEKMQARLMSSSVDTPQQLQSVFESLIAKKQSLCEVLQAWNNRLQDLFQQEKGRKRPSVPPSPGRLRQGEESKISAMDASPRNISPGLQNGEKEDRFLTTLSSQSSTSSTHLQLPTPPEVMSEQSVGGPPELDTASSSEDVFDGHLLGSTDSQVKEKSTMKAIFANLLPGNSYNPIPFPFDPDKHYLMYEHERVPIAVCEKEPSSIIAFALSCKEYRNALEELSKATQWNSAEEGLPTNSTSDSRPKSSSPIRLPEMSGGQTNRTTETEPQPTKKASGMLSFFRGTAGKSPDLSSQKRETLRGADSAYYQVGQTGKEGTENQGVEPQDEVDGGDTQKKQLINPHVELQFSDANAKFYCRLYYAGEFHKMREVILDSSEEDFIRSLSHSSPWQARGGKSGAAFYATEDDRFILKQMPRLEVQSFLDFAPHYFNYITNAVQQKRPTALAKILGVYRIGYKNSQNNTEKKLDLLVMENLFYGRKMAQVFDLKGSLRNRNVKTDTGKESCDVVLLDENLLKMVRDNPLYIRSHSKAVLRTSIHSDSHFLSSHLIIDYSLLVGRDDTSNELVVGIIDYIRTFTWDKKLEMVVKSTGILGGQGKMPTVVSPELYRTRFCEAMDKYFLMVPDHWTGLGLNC
Test: PROTAC activity at VHL/PIKfyve in human VCaP cells assessed as induction of PIKfyve degradation at 1 uM incubated for 24 hrs by immunoblot analysis
Format: cell-based
Everything with Activity lower than 20% is n; everything else, including exactly 20%, is y.

Query: API: above_or_equal(metric=Activity, cutoff=20%) for item Cc1cccc(/C=N/Nc2cc(N3CCOCC3)nc(OCCNC(=O)CCCCCCC(=O)N[C@H](C(=O)N3C[C@H](O)C[C@H]3C(=O)NCc3ccc(-c4scnc4C)cc3)C(C)(C)C)n2)c1
Result: y

Query: API: above_or_equal(metric=Activity, cutoff=20%) for item Cc1cccc(/C=N/Nc2cc(N3CCOCC3)nc(OCCc3ccc(NC(=O)CCCCCCCCC(=O)N[C@H](C(=O)N4C[C@H](O)C[C@H]4C(=O)NCc4ccc(-c5scnc5C)cc4)C(C)(C)C)cc3)n2)c1
Result: y

Query: API: above_or_equal(metric=Activity, cutoff=20%) for item Cc1cccc(/C=N/Nc2cc(N3CCOCC3)nc(OCCNC(=O)CCC(=O)N[C@H](C(=O)N3C[C@H](O)C[C@H]3C(=O)NCc3ccc(-c4scnc4C)cc3)C(C)(C)C)n2)c1
Result: n

Query: API: above_or_equal(metric=Activity, cutoff=20%) for item Cc1cccc(/C=N/Nc2cc(N3CCOCC3)nc(OCCNC(=O)CCCCCCCCCCC(=O)N[C@H](C(=O)N3C[C@H](O)C[C@H]3C(=O)NCc3ccc(-c4scnc4C)cc3)C(C)(C)C)n2)c1
Result: y

Query: API: above_or_equal(metric=Activity, cutoff=20%) for item Cc1cccc(/C=N/Nc2cc(N3CCOCC3)nc(OCCc3ccc(NC(=O)CCCCCCCCCCC(=O)N[C@H](C(=O)N4C[C@H](O)C[C@H]4C(=O)NCc4ccc(-c5scnc5C)cc4)C(C)(C)C)cc3)n2)c1
Result: n
